Assay: Equilibrium solubility of TDL in oils, surfactants and cosurfactants
Assay type: physicochemical
Settings: in Cremophor RH 40
ENDPOINT LABEL: solubility at 72 h

Lookup: Reported solubility at 72 h for CN1CC(=O)N2[C@H](c3ccc4c(c3)OCO4)c3[nH]c4ccccc4c3C[C@@H]2C1=O : what is it?
Found: ~27.6 mg/mL

----------
Assay: Equilibrium solubility of TDL in oils, surfactants and cosurfactants
Format: physicochemical
Conditions: 25 °C, oil or lipid, thermodynamic from solid; in Castor oil, 25 ± 1 °C, 72 h
Protocol: The equilibrium solubility of TDL in selected oils was measured by adding an excess quantity of the drug to 1 mL of oils (Miglyol® 812 N, Miglyol® 840, Miglyol® 829, triacetin, isopropyl myristate, castor oil, oleic acid, cinnamon oil, N-methyl pyrrolidone) separately in 1.5 mL stoppered glass vials and mixed by a vortex mixer. […] The upper supernatant was removed, and the amount of drug was determined using UV analyzer (Jenway, Staffs, UK) at a lambda max of 284 nm. […]
ENDPOINT LABEL: solubility at 72 h

Lookup: Reported solubility at 72 h for CN1CC(=O)N2[C@H](c3ccc4c(c3)OCO4)c3[nH]c4ccccc4c3C[C@@H]2C1=O : what is it?
Found: 450 µg/mL

Origin of the recorded values: paper PMC12115342
